Task for the reader: assign each of the following molecules its reported pIC50.
assay.system: Stearoyl-CoA desaturase (Homo sapiens) (UniProt O00767)
procedure.details: Inhibition of SCD1 in human A431 cells assessed as conversion of 13C-palmitic acid to 13C-palmitoleic acid after 4 hrs by LC/MS analysis
Assay type: cell-based
assay.context: A-431
One number for each entry, as −log10 of the molar value.

Example cases with answers are listed next.
# item.smiles, reported.metric, obs.value
rows = [
    ("O=C(Nc1ncc(CO)s1)N1CCC(N2CCc3ccc(F)cc32)CC1", "pIC50", 6.81),
    ("O=C(Nc1ncc(CCO)s1)N1CCC(N2CCc3ccc(F)cc32)CC1", "pIC50", 8.22),
    ("CNC(=O)c1cnc(NC(=O)N2CCC(N3CCc4ccc(F)cc43)CC2)s1", "pIC50", 6.69),
    ("O=C1NCCn2nc(NC(=O)N3CCC(N4CCc5ccc(F)cc54)CC3)cc21", "pIC50", 7.52),
    ("O=C(Nc1nc2c(s1)COCC2)N1CCC(N2CCc3ccc(F)cc32)CC1", "pIC50", 7.77),
    ("NC(=O)c1cnc(NC(=O)N2CCC(N3CCc4ccc(F)cc43)CC2)s1", "pIC50", 7.31),
    ("O=C(CO)N1CCc2nc(NC(=O)N3CCC(N4CCc5ccc(F)cc54)CC3)sc2C1", "pIC50", 6.95),
    ("Cc1csc(NC(=O)N2CCC(c3noc4ccc(F)cc34)CC2)n1", "pIC50", 7.27),
]

Batch: pIC50 for all items listed.
1. O=C(Nc1nc(CO)cs1)N1CCC(N2CCc3ccc(F)cc32)CC1
2. Cc1cnc(NC(=O)N2CCC(N3CCc4ccc(F)cc43)CC2)s1

Result ::
[7.38, 6.97]

---

assay.system: Acyl-CoA desaturase 1 (Rattus norvegicus)
Sequence (P07308 whole entry): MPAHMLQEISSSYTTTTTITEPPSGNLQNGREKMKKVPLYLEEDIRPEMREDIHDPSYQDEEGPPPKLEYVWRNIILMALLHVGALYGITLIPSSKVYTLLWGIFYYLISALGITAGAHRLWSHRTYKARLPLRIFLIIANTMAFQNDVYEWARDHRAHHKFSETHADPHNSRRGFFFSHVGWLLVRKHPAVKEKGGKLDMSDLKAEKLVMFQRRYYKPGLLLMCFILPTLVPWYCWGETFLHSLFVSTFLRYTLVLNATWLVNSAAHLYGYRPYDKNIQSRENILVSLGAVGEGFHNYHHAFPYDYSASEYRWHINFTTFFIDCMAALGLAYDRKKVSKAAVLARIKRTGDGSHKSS
reported.metric: IC50 (nM)
One number for each entry, in nM.

Query :: State, in one line, measured IC50 of Cc1csc(NC(=O)N2CCC(n3ccc4ccccc43)CC2)n1
Result :: 538

---

procedure.details: AUC (24 hrs) in rat at 2 mg/kg, iv
Type: ADME, organism-based
Set-up: time < 24 hr, dose 2 mg/kg, route intravenous
assay.context: plasma
reported.metric: AUC at 24 h
Please format your answer as a value with the unit trailing.

Query :: Output measured AUC at 24 h for this item: Cc1csc(NC(=O)N2CCC(c3noc4ccc(F)cc34)CC2)n1
Result :: 49800 ng·h/mL

---

procedure.details: Volume of distribution at steady state in rat at 2 mg/kg, iv
Type: ADME, organism-based
Design: dose 2 mg/kg, route intravenous
assay.context: in vivo, read-out: Vdss
reported.metric: Vd (L/kg)
Answers are plain numbers, in L/kg.

Query :: In one line, give reported Vd of the entry Cc1csc(NC(=O)N2CCC(c3noc4ccc(F)cc34)CC2)n1 .
Result :: 0.19

---

assay.system: Acyl-CoA desaturase 1 (Rattus norvegicus) (UniProt P07308)
procedure.details: Inhibition of SCD1 in Sprague-Dawley rat liver microsomes using Stearoyl-[9,10-3H]-CoA as substrate assessed as [3H2O] generation at 1 uM
reported.metric: inhibition (%)
Numbers only, in %.

Answer for every listed entry: what is its inhibition? The entries follow.
1. CC(=O)N1CCc2nc(NC(=O)N3CCC(N4CCc5ccc(F)cc54)CC3)sc2C1
2. CNC(=O)c1cccc(NC(=O)N2CCC(N3C(=O)Cc4ccccc43)CC2)c1
3. CNC(=O)c1cccc(NC(=O)N2CCC(c3c[nH]c4ccccc34)CC2)c1
4. CNC(=O)c1csc(NC(=O)N2CCC(N3CCc4ccc(F)cc43)CC2)n1

Result ::
46
7
15
20

---

procedure.details: Half life in rat at 10 mg/kg, po
Format: ADME, organism-based
Design: dose 10 mg/kg, route oral
assay.context: in vivo
reported.metric: half-life (min)
Give bare numbers, in min.

Query :: Entry Cc1csc(NC(=O)N2CCC(c3noc4ccc(F)cc34)CC2)n1 needs its half-life filled in; supply it.
Result :: 378

---

procedure.details: AUC (24 hrs) in DIO mouse at 30 mg/kg, po
Format: ADME, organism-based
Design: time < 24 hr, dose 30 mg/kg, route oral
assay.context: plasma
reported.metric: AUC at 24 h
Value and unit, in that order.

Query :: Give the reported value of AUC at 24 h for this record: Cc1csc(NC(=O)N2CCC(c3noc4ccc(F)cc34)CC2)n1
Result :: 169 µg·h/mL

---

procedure.details: Half life in rat at 2 mg/kg, iv
Assay type: ADME, organism-based
Parameters: dose 2 mg/kg, route intravenous
assay.context: in vivo
reported.metric: half-life (h)
Numbers only, in h.

Query :: Retrieve half-life measured for Cc1csc(NC(=O)N2CCC(c3noc4ccc(F)cc34)CC2)n1 and print it.
Result :: 3.8

---

assay.system: UniProtKB O00767
Sequence (whole entry): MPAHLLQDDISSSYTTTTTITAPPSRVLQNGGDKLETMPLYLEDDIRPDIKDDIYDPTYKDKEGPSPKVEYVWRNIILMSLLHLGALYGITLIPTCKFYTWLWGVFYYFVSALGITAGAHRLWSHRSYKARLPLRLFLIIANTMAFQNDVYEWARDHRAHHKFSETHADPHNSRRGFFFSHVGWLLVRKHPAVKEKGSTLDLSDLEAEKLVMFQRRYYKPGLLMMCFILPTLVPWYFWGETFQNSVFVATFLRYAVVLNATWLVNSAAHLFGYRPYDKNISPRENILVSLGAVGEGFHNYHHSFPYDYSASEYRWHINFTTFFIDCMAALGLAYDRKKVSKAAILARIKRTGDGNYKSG
procedure.details: Inhibition of SCD1 in human A431 cells assessed as conversion of 13C-palmitic acid to 13C-palmitoleic acid after 4 hrs by LC/MS analysis
Type: cell-based
assay.context: A-431
Record form. Attribute: pIC50. Fill in for each entry.
Answers are plain numbers, as −log10 of the molar value.

# molecule, pIC50
records = [
    ("O=C(Nc1nc2c(s1)CCCC2)N1CCC(N2CCc3ccc(F)cc32)CC1", 7.12),
    ("Cc1csc(NC(=O)N2CCC(N3CCc4ccc(F)cc43)CC2)n1", 7.68),
    ("O=C(Nc1nc(CCO)cs1)N1CCC(N2CCc3ccc(F)cc32)CC1", 7.74),
    ("O=C(Nc1nc2c(s1)CNCC2)N1CCC(N2CCc3ccc(F)cc32)CC1", 7.80),
]

We now examine a further molecule.
Query :: Write down measured pIC50 (UniProtKB O00767) for this molecule. O=C(Nc1nc2c(s1)CC(O)CC2)N1CCC(N2CCc3ccc(F)cc32)CC1 (stereo not given)
Result :: 9.00

---

procedure.details: Clearance in rat at 10 mg/kg, po
Format: ADME, organism-based
Design: dose 10 mg/kg, route oral
assay.context: in vivo
reported.metric: CL/F (mL/min/kg)
Answers are plain numbers, in mL/min/kg.

Query :: Determine its reported CL/F: Cc1csc(NC(=O)N2CCC(c3noc4ccc(F)cc34)CC2)n1
Result :: 0.5

---

procedure.details: AUC (24 hrs) in rat at 10 mg/kg, po
Format: ADME, organism-based
Set-up: time < 24 hr, dose 10 mg/kg, route oral
assay.context: plasma
reported.metric: AUC at 24 h (µg·h/mL)
Give bare numbers, in µg·h/mL.

Query :: Note down AUC at 24 h recorded for Cc1csc(NC(=O)N2CCC(c3noc4ccc(F)cc34)CC2)n1
Result :: 118

---

procedure.details: Cmax in rat at 2 mg/kg, iv
Format: ADME, organism-based
Set-up: dose 2 mg/kg, route intravenous
assay.context: in vivo
reported.metric: Cmax (µg/mL)
Answers are plain numbers, in µg/mL.

Query :: Tell me its Cmax given Cc1csc(NC(=O)N2CCC(c3noc4ccc(F)cc34)CC2)n1 as the entry.
Result :: 9.2

---

procedure.details: Half life in DIO mouse at 30 mg/kg, po
Format: ADME, organism-based
Design: dose 30 mg/kg, route oral
assay.context: in vivo
reported.metric: half-life
Give the figure together with its unit, number first.

Query :: Give reported half-life value for Cc1csc(NC(=O)N2CCC(c3noc4ccc(F)cc34)CC2)n1
Result :: 3.1 h
